assay: Toxicity liver stage against HepG2, at 10uM; type: cell-based; parameters: test concentration 10 uM, cell line HepG2-A16-CD81EGFP; conditions: human, HepG2-A16-CD81EGFP cells; read-out: INHIBITION
Can you tell me cytotoxicity at 10 µM for the items I'm about to list?
Answer format reminder: number followed by unit.

Sample records with cytotoxicity at 10 µM:
Cn1cncc1CN1CCC(O)(Cn2nc(-c3cccs3)oc2=O)CC1 : -5.46%
COc1ccc(C(=O)N(C)Cc2nnc3ccccn23)c(OC)c1OC : -11.5%
CC(=O)c1cccc(NC(=O)Cn2cc(I)cn2)c1 : -1.87%
CN1CCCN(C(C(=O)O)c2ccc3c(c2)OCO3)CC1 (stereo unspecified) : 1.83%
Cc1oncc1C(=O)N1CC2CC1(C(=O)N(C)C)C2 : -0.95%
COc1ccc(F)c(-c2cc(C(=O)NC3CC3)ccn2)c1 : -1.36%

Please state cytotoxicity at 10 µM for every compound in the list that follows.
1. Cc1nccc(-c2cccc(NCC(=O)NCC(=O)N3CCCC3)c2)n1
2. Cc1cc(C)c(CNC(=O)N2CCN(c3nccs3)CC2)c(=O)[nH]1
3. Cc1cccnc1NC(=O)NC(CCO)C(C)(C)C (stereo unspecified)
4. O=C(CC1CCCC1)N1CCCC(c2n[nH]c3nccnc23)C1 (stereo unspecified)

1: -9.18%; 2: -20.9%; 3: 2.3%; 4: -2.6%

---

Can you tell me cytotoxicity at 10 µM for the items I'm about to list?
assay: Toxicity liver stage against HepG2, at 10uM; assay type: cell-based; parameters: test concentration 10 uM, cell line HepG2-A16-CD81EGFP; settings: human, HepG2-A16-CD81EGFP cells; read-out: INHIBITION
One number for each entry, in %.

Sample records with cytotoxicity at 10 µM:
CC1CCCCN1Cc1nc(C2CC2)no1 (centres undefined) : 4.48
O=C(NC1CCc2[nH]c(=O)ccc2C1)C1CCOCC1 (centres undefined) : 1.42
Cc1cccc(N2CCCC2c2nc(C)ncc2CN(C)C)n1 (centres undefined) : -2.17
NC(=O)C1CCN(Cn2nc(-c3ccc(F)cc3)oc2=O)CC1 : -19.6
CNC(=O)CN([C@H]1C[C@H]2CCOC[C@H]2C1)S(=O)(=O)c1ccccc1 : -1.63

Please state cytotoxicity at 10 µM for every molecule in the list that follows.
1. COc1ncccc1CN1C[C@@H]2C[C@@H](C(=O)NCC3CC3)N(C)[C@@H]2C1
2. N[C@H]1CN(C(=O)Cc2cc(F)cc(Cl)c2)C[C@@H]1C1CC1
3. Cc1cc(F)ccc1N1CCCC(NC2CCOCC2)C1=O (centres undefined)
4. CNC(=O)NCC(CO)Cc1cccc(OC(F)(F)F)c1 (centres undefined)

1.2
0.0152
-11.3
-1.28

---

experiment: Toxicity liver stage against HepG2, at 10uM; assay type: cell-based; set-up: test concentration 10 uM, cell line HepG2-A16-CD81EGFP; conditions: human, HepG2-A16-CD81EGFP cells; read-out: INHIBITION
reported.metric: cytotoxicity at 10 µM

Sample records with cytotoxicity at 10 µM:
CCn1nc(C)c2c1cnn2CCNS(=O)(=O)CC : 2.63%
Cc1nccn1-c1ccc(CNS(=O)(=O)N2CCC(C)CC2)cn1 : 1.28%
CS(=O)(=O)N1CC[C@H](c2nc3ccc(C(F)(F)F)cc3[nH]2)C1 : 0.0915%
CCCN1CCN(C(=O)CCn2nc(C(F)(F)F)c(Br)c2C)CC1 : -8.71%
OCC1(CCOc2ccccc2)CCN(c2ccc(Cl)cn2)CC1 : -43.4%

Please state cytotoxicity at 10 µM for every molecule in the list that follows.
1. Cn1cc(C(=O)NCCc2csc(-c3ccccc3)n2)ccc1=O
2. CCCc1n[nH]c(C2CN(C(=O)CCCn3ccnc3)CCO2)n1 (stereo not drawn)

-6.7%
-5.39%

From: ChEMBL document CHEMBL4513216
